Attribute: GI50
- System: OVCAR-5 ovarian
- Procedure Details: NCI tumour cell line growth inhibition, 48 h

Examples from the recorded data:
### Prompt Bench note: what GI50 did Cn1cc(/C=C2\C(=O)Nc3cccnc32)c2ccccc21 show?
### Response > 25 µM

### Prompt Bench note: what GI50 did CCOc1ccc(N2C(N)=NC(N)=NC2(C)C)cc1 show?
### Response 39.7 µM

Now take the following compound into account.
### Prompt Bench note: what GI50 did COc1cc(C=NCC(=O)CSC(c2ccccc2)c2ccccc2)cc(OC)c1OC show?
### Response 63.5 µM

----------
- Tested on: UO-31 renal
- Procedure Details: NCI tumour cell line growth inhibition, 48 h
Attribute: TGI

Examples from the recorded data:
### Prompt Give recorded TGI with UO-31 renal for the following compound: Fc1ccc(-c2c(-c3ccncc3)n(CCN3CCOCC3)c3cccnc23)cc1
### Response > 25 µM

### Prompt Give recorded TGI with UO-31 renal for the following compound: Cc1ccc(Oc2cc(C)ccc2P(=O)(O)O)cc1
### Response > 100 µM

Continuing:
### Prompt Give recorded TGI with UO-31 renal for the following compound: CCCCCCCCSC(SCCCCCCCC)=C1C(=O)N(c2ccccc2)N=C1C
### Response > 100 µM

### Prompt Give recorded TGI with UO-31 renal for the following compound: Fc1ccccc1C1SCC2=Nc3ccccc3CN21 (centres undefined)
### Response > 100 µM

----------
- Test system: TK-10 renal
- Procedure Details: NCI tumour cell line growth inhibition, 48 h
Reported Metric: TGI (µM)
API: value field is a number in µM; no unit string.

### Prompt Give recorded TGI with TK-10 renal for the following molecule: COc1ccccc1OCC(COC(=O)Nc1ccc(C)cc1)OC(=O)Nc1ccc(C)cc1 (centres undefined)
### Response 47

Continuing:
### Prompt Give recorded TGI with TK-10 renal for the following molecule: COc1cc(C=NCC(=O)CSC(c2ccccc2)c2ccccc2)cc(OC)c1OC
### Response 79.1

----------
- System: EKVX NSCLC
- Procedure Details: NCI tumour cell line growth inhibition, 48 h; in the data active = GI50 below about 0.43 µM; inactive = the rest
Answer with one of the outcomes given here: active, inactive

Below are worked cases with known answers.
### Prompt For COCCn1cc(-c2csc(-c3c[nH]c4ccc(F)cc34)n2)c2cccnc21 , what call appears in the results of this test?
### Response inactive

### Prompt For CCN(CC)c1ccc(/C=N\NC(=O)c2cccc(Nc3ccnc(C(F)(F)F)c3)c2)c(O)c1 , what call appears in the results of this test?
### Response active

Below: the item to evaluate.
### Prompt For N#CC(C#N)=C/C=C/c1cccc([N+](=O)[O-])c1 , what call appears in the results of this test?
### Response inactive

----------
- System: A498 renal
- Procedure Details: NCI tumour cell line growth inhibition, 48 h
Attribute: TGI

### Prompt Bench note: what TGI did O=C(O)CNS(=O)(=O)c1ccc(NC(=O)c2cccc([N+](=O)[O-])c2)cc1 show?
### Response > 100 µM

### Prompt Bench note: what TGI did NC(=O)Nc1n[nH]c(-c2ccccc2)n1 show?
### Response > 100 µM

### Prompt Bench note: what TGI did C[N+](C)(C)c1nc(N)nc2c1ncn2C1OC(CO)C(O)C1O (stereo not drawn) show?
### Response > 100 µM

----------
- Test system: HS 578T breast
- Procedure Details: NCI tumour cell line growth inhibition, 48 h; in the data active = GI50 below about 0.43 µM; inactive = the rest
Answer with one of the outcomes given here: active, inactive

### Prompt For O=C(N/N=C\c1cc(Cl)ccc1O)N/N=C/c1cc(Cl)ccc1O , what call appears in the results of this test?
### Response inactive

### Prompt For O=C(/C=C/c1cccs1)Nc1ncc(Cc2ccccc2F)s1 , what call appears in the results of this test?
### Response active

### Prompt For Cc1cc(C#Cc2ccccc2)ccc1-n1c(/C=C/c2ccc(O)cc2)nc2ccccc2c1=O , what call appears in the results of this test?
### Response inactive

### Prompt For N#CC(C#N)=C/C=C/c1cccc([N+](=O)[O-])c1 , what call appears in the results of this test?
### Response active

----------
- Tested on: SF-539 CNS
- Procedure Details: NCI tumour cell line growth inhibition, 48 h
Attribute: TGI

Examples from the recorded data:
### Prompt Bench note: what TGI did COc1ccc(/C=C/CO)cc1OC show?
### Response > 100 µM

### Prompt Bench note: what TGI did Cc1cn(C2CC(O)C(Cn3cc(Cn4nc(Br)c(=O)[nH]c4=O)nn3)O2)c(=O)[nH]c1=O (stereo not drawn) show?
### Response > 100 µM

Continuing:
### Prompt Bench note: what TGI did O=C1C(=O)C(CCCO)(CCCO)CCCCCCCCC1(CCCO)CCCO show?
### Response > 100 µM

----------
- System: ACHN renal
- Procedure Details: NCI tumour cell line growth inhibition, 48 h
Reported Metric: GI50

### Prompt Give recorded GI50 with ACHN renal for the following compound: O=c1c2c(=NCCCN3CCCC3)cc3c(=O)n(CCCN4CCCC4)c(=O)c4c(NCCCN5CCCC5)cc(c(O)n1CCCN1CCCC1)c2c4-3
### Response 2.55 µM

### Prompt Give recorded GI50 with ACHN renal for the following compound: CC(C)=CCC[C@](C)(O)[C@H]1CC[C@]2(C)[C@@H]1CC[C@@H]1[C@@]3(C)CC[C@H](OC(=O)CCC(=O)O)C(C)(C)[C@@H]3CC[C@]12C
### Response 28.3 µM

### Prompt Give recorded GI50 with ACHN renal for the following compound: CCc1ccc(/C=C2/SC(=S)NC2=O)cc1
### Response 27.2 µM

### Prompt Give recorded GI50 with ACHN renal for the following compound: COc1cc([N+](=O)[O-])c2ncccc2c1O
### Response 6.08 µM

### Prompt Give recorded GI50 with ACHN renal for the following compound: C=C(C)[C@@H]1CC[C@]2(C#N)CC[C@]3(C)[C@H](CC[C@@H]4[C@@]5(C)CCCNC(C)(C)[C@@H]5CC[C@]43C)[C@@H]12
### Response 1.83 µM

### Prompt Give recorded GI50 with ACHN renal for the following compound: Cc1cc(C#Cc2ccccc2)ccc1-n1c(/C=C/c2ccc(O)cc2)nc2ccccc2c1=O
### Response 2.46 µM

### Prompt Give recorded GI50 with ACHN renal for the following compound: C/C(=N\n1c(N)c(C#N)c(-c2ccc(Cl)cc2)c(C#N)c1=O)c1cccnc1
### Response > 100 µM

----------
- Test system: EKVX NSCLC
- Procedure Details: NCI tumour cell line growth inhibition, 48 h
Attribute: TGI

### Prompt Bench note: what TGI did CCNC1=CC(=O)c2ncccc2C1=O show?
### Response 18.5 µM

### Prompt Bench note: what TGI did CC(C)=CCC[C@](C)(O)[C@H]1CC[C@]2(C)[C@@H]1CC[C@@H]1[C@@]3(C)CC[C@H](OC(=O)CCC(=O)O)C(C)(C)[C@@H]3CC[C@]12C show?
### Response > 100 µM

### Prompt Bench note: what TGI did Cc1nc(-c2ccc(Cl)cc2)cn2c1nc1ccccc12 show?
### Response > 100 µM

Continuing:
### Prompt Bench note: what TGI did COS(=O)CCOC(=O)c1ccccc1SSc1ccccc1C(=O)OCCS(=O)OC (stereo not given) show?
### Response > 100 µM

### Prompt Bench note: what TGI did O=C1CCCc2c(O)ccc(O)c21 show?
### Response > 100 µM

### Prompt Bench note: what TGI did CCn1cc(C2NC(=O)c3cc(F)ccc3N2)c2cccc(Cl)c21 (stereo not given) show?
### Response > 100 µM

### Prompt Bench note: what TGI did C=C1C(=O)OC2C1CC1OC2C(C)CCC/C(C)=C\CCC1(C)O (stereo not given) show?
### Response 79.4 µM

### Prompt Bench note: what TGI did Cc1cc(C(C)(C)C)c(OCCCN2CCOCC2)c(C(C)(C)C)c1 show?
### Response 32.5 µM

### Prompt Bench note: what TGI did CC(=O)Nc1[nH]c(=O)[nH]c(=O)c1N(C(C)=O)C(C)=O show?
### Response > 100 µM

### Prompt Bench note: what TGI did COC(=N)/C(=C1\OC(N)=C(c2ccc(Cl)cc2)C1=O)c1ccc(Cl)cc1 show?
### Response > 100 µM

### Prompt Bench note: what TGI did CCCS(=O)OC1C(C2COC(C)(C)O2)OC2OC(C)(C)OC21 (stereo not given) show?
### Response 32 µM

### Prompt Bench note: what TGI did NC(=O)Nc1n[nH]c(-c2ccccc2)n1 show?
### Response > 100 µM

### Prompt Bench note: what TGI did COc1ccccc1OCC(O)CO (stereo not given) show?
### Response > 100 µM

### Prompt Bench note: what TGI did Cc1ccc(C)c(NC(=O)CCc2n[nH]c(=S)o2)c1 show?
### Response > 100 µM
